Test system: native geph
Test: µSPOT peptide microarray binding assay with native geph from mouse brain lysate
Details: overlapping GABAAR α3 peptide library on µSPOT array; 6% mouse brain lysate; normalized to most prominent spot; n = 2 array-internal duplicate
assay-endpoint: Native geph Binding Intensity [norm.] (norm.)
Report the figure in norm. without appending any unit label.

Worked set:
[[record]]
sequence_input = "EFSTISKSAAAPSASSTPTA [GABAAR α3 residues 411-430, µSpot library]"
measured_number = 0.127

[[record]]
sequence_input = "KSAAAPSASSTPTAIASPKA [GABAAR α3 residues 417-436, µSpot library]"
measured_number = 0.103

[[record]]
sequence_input = "SASSTPTAIASPKATYVQDS [GABAAR α3 residues 423-442, µSpot library]"
measured_number = 0.075

[[record]]
sequence_input = "TKRSWAWEGKKVPEALEMKK"
measured_number = 0.033

[[record]]
sequence_input = "LEMKKKTPAAPTKKNTTFNI [GABAAR α3 residues 378-397, µSpot library]"
measured_number = 0.085

[[record]]
sequence_input = "ASPKATYVQDSPAETKTYNS [GABAAR α3 residues 432-451, µSpot library]"
measured_number = 0.050

[[record]]
sequence_input = "TPAAPTKKNTTFNIVGTTYP [GABAAR α3 residues 384-403, µSpot library]"
measured_number = 1.000


Kindly review the next sequence as well.
Endpoint output: Native geph Binding Intensity [norm.] of TISKSAAAPSASSTPTAIAS [GABAAR α3 residues 414-433, µSpot library] . Value?
0.116
